Hey, just so you know, these numbers are from the supplement of paper PMC6757056.

Measured normalized RNA/DNA level with ligand (log10) of individual entries
B1: library; a variant is named by its letters at N, in order (parent)
chain: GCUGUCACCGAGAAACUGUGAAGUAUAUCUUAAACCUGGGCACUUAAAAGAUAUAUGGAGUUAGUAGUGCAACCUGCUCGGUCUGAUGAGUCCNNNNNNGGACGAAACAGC

Variants of: B1
Experiment: normalized RNA/DNA level with ligand (relative to sTRSVctl = 100) (log10 (% of sTRSVctl)); HEK293T; ligand: cyclic di-GMP (c-di-GMP-II aptamer); ligand concentration (+) RNA-Seq: 1 mM; higher = less ribozyme self-cleavage, higher mRNA level
Conditions: reporter: mCherry (pCS4076), ligand present: yes
reportedMetric: normalized RNA/DNA level with ligand (log10)

> print(dat)
    changes  endpointresult
 1   CCAGCG            1.91
 2   CGGAUG            1.77
 3   AGGAGC             1.7
 4   GACCCU            1.87
 5   CGUUAC            1.74
 6   GAUAGA            1.64
 7   CUAACU            1.74
 8   UGGUGA            1.75
 9   UUCGAU            1.85
10   CAAGUC            1.78
11   GAGUAC            1.87
